# IC50 in H1650 cells, ratio to DXD values compiled below
# System: H1650 (NSCLC) cells
# Assay Name: Inhibition of H1650 cells by compounds
# Format: cell-based
# Measurement Conditions: PY-X (DXD) set to 1

[
  {
    "Molecule": "CC[C@@]1(O)C(=O)OCc2c1cc1n(c2=O)Cc2c-1nc1cc(F)c(C)c3c1c2[C@@H](NC(=O)OCCO)CC3",
    "IC50 in H1650 cells, ratio to DXD": 0.4491
  },
  {
    "Molecule": "CC[C@@]1(O)C(=O)OCc2c1cc1n(c2=O)Cc2c-1nc1ccc(CO)c3c1c2CCC3 [PY-37A]",
    "IC50 in H1650 cells, ratio to DXD": 0.2611
  },
  {
    "Molecule": "CC[C@@]1(O)C(=O)OCc2c1cc1n(c2=O)Cc2c-1nc1cc(Cl)c(CO)c3c1c2CCC3",
    "IC50 in H1650 cells, ratio to DXD": 0.7310
  },
  {
    "Molecule": "CC[C@@]1(O)C(=O)OCc2c1cc1n(c2=O)Cc2c-1nc1cc(F)c(CO)c3c1c2CCC3",
    "IC50 in H1650 cells, ratio to DXD": 0.0456
  }
]

====

Each item that follows carries a reported IC50 in HT-29 cells, ratio to DXD.
# Test system: HT-29 (Colon) cells
# Assay Name: Inhibition of HT-29 cells by compounds
# Type: cell-based
# Measurement Conditions: PY-X (DXD) set to 1

[
  {
    "Molecule": "CC[C@@]1(O)C(=O)OCc2c1cc1n(c2=O)Cc2c-1nc1cc(F)c(O)c3c1c2CCC3",
    "IC50 in HT-29 cells, ratio to DXD": 0.1434
  },
  {
    "Molecule": "CC[C@@]1(O)C(=O)OCc2c1cc1n(c2=O)Cc2c-1nc1cc(Cl)c(CO)c3c1c2CCC3",
    "IC50 in HT-29 cells, ratio to DXD": 0.4700
  },
  {
    "Molecule": "CC[C@@]1(O)C(=O)OCc2c1cc1n(c2=O)Cc2c-1nc1cc(F)c(CO)c3c1c2CCC3",
    "IC50 in HT-29 cells, ratio to DXD": 0.0874
  },
  {
    "Molecule": "CC[C@@]1(O)C(=O)OCc2c1cc1n(c2=O)Cc2c-1nc1cc(F)c(C)c3c1c2[C@@H](NC(=O)OCCCCO)CC3",
    "IC50 in HT-29 cells, ratio to DXD": 0.4854
  },
  {
    "Molecule": "CC[C@@]1(O)C(=O)OCc2c1cc1n(c2=O)Cc2c-1nc1cc(Cl)c(CN)c3c1c2CCC3",
    "IC50 in HT-29 cells, ratio to DXD": 0.4909
  },
  {
    "Molecule": "CC[C@@]1(O)C(=O)OCc2c1cc1n(c2=O)Cc2c-1nc1cc(F)c(C)c3c1c2[C@@H](NC(=O)OCCO)CC3",
    "IC50 in HT-29 cells, ratio to DXD": 0.3312
  },
  {
    "Molecule": "CC[C@@]1(O)C(=O)OCc2c1cc1n(c2=O)Cc2c-1nc1ccc(CO)c3c1c2CCC3 [PY-37A]",
    "IC50 in HT-29 cells, ratio to DXD": 0.2181
  },
  {
    "Molecule": "CC[C@@]1(O)C(=O)OCc2c1cc1n(c2=O)Cc2c-1nc1cc(F)c(CN)c3c1c2CCC3",
    "IC50 in HT-29 cells, ratio to DXD": 0.1933
  }
]

Values compiled from patent US20260199500A1.
